Just for reference, patent US9296745B2 is where these values come from.

- SYSTEM: Human DGAT2 (hDGAT2) (Homo sapiens (Human), UniProt Q96PD7)
- Sequence (Q96PD7 whole entry): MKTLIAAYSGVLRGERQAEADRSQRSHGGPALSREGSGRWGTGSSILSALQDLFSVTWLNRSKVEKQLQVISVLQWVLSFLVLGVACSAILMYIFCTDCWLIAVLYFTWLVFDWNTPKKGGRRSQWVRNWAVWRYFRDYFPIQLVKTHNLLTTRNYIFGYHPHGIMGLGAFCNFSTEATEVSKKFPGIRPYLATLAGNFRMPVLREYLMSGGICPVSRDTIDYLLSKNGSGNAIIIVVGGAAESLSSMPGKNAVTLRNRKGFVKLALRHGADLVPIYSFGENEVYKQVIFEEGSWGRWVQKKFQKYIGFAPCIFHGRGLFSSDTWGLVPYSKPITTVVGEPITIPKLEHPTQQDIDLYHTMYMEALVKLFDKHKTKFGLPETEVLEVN
- TEST: In vitro DGAT2 assay, IC50 determination with hDGAT2 membrane fraction
- Assay type: biochemical
- MEASUREMENT CONTEXT: geometric mean; background for complete inhibition of DGAT2 obtained with 50 μM (1R,2R)-2-({3′-Fluoro-4′-[(6-fluoro-1,3-benzothiazol-2-yl)amino]-1,1′-biphenyl-4-yl}carbonyl)cyclopentanecarboxylic acid; read-out: DGAT2 IC50
pIC50: −log10 of the molar value.

- ITEM SMILES: "N#Cc1cncc(-c2nc3ccc(N4CCC[C@@H](C(=O)N5CCCC5)C4)nc3[nH]2)c1"
  pIC50: 6.99
- ITEM SMILES: "CSc1cnn(C2(c3nc4ccc(N5CCC[C@@H](C(=O)N6CCCC6)C5)nc4[nH]3)CC2)c1"
  pIC50: 7.47
- ITEM SMILES: "NC(=O)c1cccc(-c2nc3ccc(N4CCC[C@@H](C(=O)N5CCCC5)C4)nc3[nH]2)n1"
  pIC50: 7.08
- ITEM SMILES: "O=C([C@@H]1CCCN(c2ccc3nc(C4(n5cccn5)CCC4)[nH]c3n2)C1)N1CCCC1"
  pIC50: 5.85
- ITEM SMILES: "Cc1cccc(-c2nc3ccc(N4CCC[C@@H](C(=O)N5CCCC5)C4)nc3[nH]2)c1"
  pIC50: 8.08
- ITEM SMILES: "O=C([C@@H]1CCCN(c2nc3[nH]c(-c4ccnc(C5CC5)n4)nc3cc2F)C1)N1CCCC1"
  pIC50: 8.20
- ITEM SMILES: "COc1cccc(-c2nc3ccc(N4CCC[C@@H](C(=O)N5CCCC5)C4)nc3[nH]2)c1"
  pIC50: 7.68
- ITEM SMILES: "O=C([C@@H]1CCCN(c2ccc3nc(-c4ccnc(N5CCCC5)n4)[nH]c3n2)C1)N1CCCC1"
  pIC50: 7.53
